# Test system: 695427-040-R-J1-PDC complex spheroid viability;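 further: spheroids exposed to compounds for seven days; 100% = DMSO vehicle control viability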
# testProtocol: Anticancer human tumor 695427-040-R-J1-PDC patient-derived colon adenocarcinoma cell line growth inhibition [POLQ]
# studyConditions: second compound 10 µM; first compound 0.0316 µM; stronger effect = lower value
# Experimental: Multicellular complex tumor spheroid response to Polymerase (POL) inhibitors (novobiocin, ART-558, RP6685) in combination with a variety of drugs and investigational agents in selected tumor cell lines The POL inhibitors (novobiocin, ART-558, and RP6685) were evaluated both individually and in combination with standard of care and investigational anticancer small molecules within a complex spheroid model of solid tumors. . […]
quantity: viability, T/C (%)
Give bare numbers, in %.

Below are worked cases with known answers.
Ask: Report viability, T/C for O=c1[nH]cc(F)c(=O)[nH]1 + Cc1cccc(N(C)C(=O)C2C(O)CCN2c2nc(C)cc(C(F)(F)F)c2C#N)c1 please.
Result: 90.6

Ask: Report viability, T/C for COc1cc(C2c3cc4c(cc3C(OC3OC5COC(C)OC5C(O)C3O)C3COC(=O)C23)OCO4)cc(OC)c1O (centres undefined) + Nc1ccc(C#CCN(C(=O)Cc2ncc(C(F)(F)F)cc2C(F)(F)F)c2ccc(F)cc2)nn1 please.
Result: 92.7

Hi, could you look up viability, T/C for each item in my list?
1. CC[C@@]1(O)C(=O)OCc2c1cc1n(c2=O)Cc2cc3c(CN(C)C)c(O)ccc3nc2-1 + Cc1cccc(N(C)C(=O)C2C(O)CCN2c2nc(C)cc(C(F)(F)F)c2C#N)c1
2. CCc1c2c(nc3ccc(O)cc13)-c1cc3c(c(=O)n1C2)COC(=O)[C@]3(O)CC + Nc1ccc(C#CCN(C(=O)Cc2ncc(C(F)(F)F)cc2C(F)(F)F)c2ccc(F)cc2)nn1
3. CCc1cc2c(N3CCc4c(cc(Cn5ccnc5)cc4-c4cn(C)nc4C(F)(F)F)C3=O)ccnc2c(OC)n1 + COC1C(OC(N)=O)C(O)C(Oc2ccc3c(O)c(NC(=O)c4ccc(O)c(CC=C(C)C)c4)c(=O)oc3c2C)OC1(C)C
4. COc1cccc(OCCCN)c1-c1cc(Nc2cnc(C#N)cn2)n[nH]1 + Nc1ccc(C#CCN(C(=O)Cc2ncc(C(F)(F)F)cc2C(F)(F)F)c2ccc(F)cc2)nn1
5. CC1COCCN1c1cc(C2(O)CC3CCC(C2)O3)c2cnn(-c3ccn[nH]3)c2n1 (centres undefined) + Cc1cccc(N(C)C(=O)C2C(O)CCN2c2nc(C)cc(C(F)(F)F)c2C#N)c1

Result:
[87.5, 86.7, 111, 69.7, 93.3]

Hi, could you look up viability, T/C for each item in my list?
1. CC1COCCN1c1cc(-c2ccnn2C)c2ccnc(-c3ccn[nH]3)c2n1 (centres undefined) + Cc1cccc(N(C)C(=O)C2C(O)CCN2c2nc(C)cc(C(F)(F)F)c2C#N)c1
2. CC1COCCN1c1cc(C2(O)CC3CCC(C2)O3)c2cnn(-c3ccn[nH]3)c2n1 (centres undefined) + Nc1ccc(C#CCN(C(=O)Cc2ncc(C(F)(F)F)cc2C(F)(F)F)c2ccc(F)cc2)nn1

Result:
1. 86.5
2. 106
